- Test system: K-562 leukemia
- assay_summary: NCI tumour cell line growth inhibition, 48 h
measured_property: TGI

Here are 5 molecules together with their reported answers.
| molecule | system_name | TGI |
| --- | --- | --- |
| O=C1/C(=C/c2ccc([N+](=O)[O-])s2)Oc2ccccc21 | K-562 leukemia | 0.728 µM |
| c1ccc2cc(OCC3CO3)c(OCC3CO3)cc2c1 (stereo unspecified) | K-562 leukemia | 25.1 µM |
| O=C(O)c1cc(-c2ccccc2O)nc2ccccc12 | K-562 leukemia | > 100 µM |
| NCS(=O)(=O)O | K-562 leukemia | > 100 µM |
| CCOC(=O)C1=C(NC(C)(C)C)OCC1=O | K-562 leukemia | > 100 µM |

Give measured TGI for every item shown.
1. COc1ccccc1CNC(=O)C1c2ccccc2C(=O)N(CC(C)C)C1c1cccs1 (stereo unspecified)
2. COc1ccc(C2C(c3ccccc3)C(=O)N2c2cc(OC)c(OC)c(OC)c2)cc1I (stereo unspecified)
3. COC(=O)c1c2c(c(C)[n+]([O-])c1C)C(=O)C(NCc1cccc(OC)c1)=CC2=O
4. Oc1ccc(Br)cc1/C=N/NC(=S)NC12CC3CC(CC(C3)C1)C2

**Result**
> 100 µM
> 100 µM
> 100 µM
5.3 µM

Give measured TGI for every item shown.
1. Cn1c(=O)c2c(nc(C[N+]3([O-])CCOCC3)n2C)n(C)c1=O
2. COc1cccc(/C(C=O)=C(\Cl)c2ccc(OC)c(OC)c2)c1

**Result**
1: > 100 µM; 2: 46.2 µM

Give measured TGI for every item shown.
1. CC(=O)O[C@H]1C(=O)[C@@]2(C)[C@H]([C@H](OC(=O)c3ccc([N+](=O)[O-])cc3)[C@]3(O)C[C@H](OC(=O)[C@H](O)[C@@H](NC(=O)c4ccccc4)c4ccccc4)C(C)=C1C3(C)C)[C@]1(OC(C)=O)CO[C@@H]1C[C@@H]2O
2. COc1ccc(CNc2nc(NCc3ccc(OC)cc3)nc(NC(C)C)n2)cc1
3. CCc1ccccc1-n1c2nc(=O)n(C)c(=O)c-2nc2ccccc21
4. Fc1ccc(F)c(C2SCc3nc4ccccc4n32)c1 (stereo unspecified)

**Result**
1: > 25 µM; 2: > 100 µM; 3: 31.8 µM; 4: > 100 µM

Give measured TGI for every item shown.
1. O=C(O)c1ccccn1
2. COc1cccc(Cn2cc3c(c2)-c2oncc2CC3)c1
3. COC(=O)C1=C(c2cc(OC)c(OC)c(OC)c2)OC(c2cc(OC)c(OC)c(OC)c2)C1COC(C)=O (stereo unspecified)
4. Cn1cnc2c(OCC3CCCCC3)nc(N)nc21

**Result**
> 100 µM
> 100 µM
> 100 µM
> 100 µM

Give measured TGI for every item shown.
1. COC(=O)C(/C(=N/N)C(=O)Nc1cc(Cl)c(Cl)cc1Cl)c1nc2ccc(Cl)cc2[nH]c1=O (stereo unspecified)
2. Cc1c2ccnc(-c3ccccc3)c2cc2c1[nH]c1ccccc12

**Result**
1: > 100 µM; 2: 5.38 µM
